What pest or weed control at 200 ppm was measured for each of the following?
Test system: Piricularia oryzae
Experiment: whole plant or invertebrate
Assay type: in vivo
Measurement Conditions: Pyricularia oryzae, read-out: % Control RB, application rate 200 ppm
API: value field is a number in %; no unit string.

Name the recorded pest or weed control at 200 ppm of the compound listed here: CCCCCCCCNC(=O)/C=C\SC(=O)c1cc([N+](=O)[O-])ccc1[N+](=O)[O-]
0

Hello, please tell me recorded pest or weed control at 200 ppm for this one: CCCCCCCCNC(=O)/C=C\SC(=O)CC(C)c1ccccc1 (stereo not drawn)
0

Assign pest or weed control at 200 ppm to the following record: CCCCCCCCNC(=O)/C=C\SC(=O)c1ccc(C)cc1
0

Consider the compound CCCCCCCCNC(=O)/C=C\SC(=O)CCC(=O)OCC and give its recorded pest or weed control at 200 ppm.
0

Look up pest or weed control at 200 ppm of CCCCCCCCNC(=O)/C=C\SC(=O)CC=Cc1ccccc1 and report it.
90

Return pest or weed control at 200 ppm for the following compound: CCCCCCCCNC(=O)/C=C\SC(=O)CCCc1ccccc1
50

Annotate the compound CCCCCCCCNC(=O)/C=C\SC(=O)N(c1ccccc1)c1ccccc1 with its measured pest or weed control at 200 ppm.
0

State its pest or weed control at 200 ppm for this compound: CCCCCCCCNC(=O)/C=C\SC(=O)c1ccc([N+](=O)[O-])c([N+](=O)[O-])c1
0

Answer with reported pest or weed control at 200 ppm of CCCCCCCCNC(=O)/C=C\SC(=O)c1ccc2ccccc2c1
0

* * *

Give pest or weed control at 50 ppm for every item shown.
Tested on: Piricularia oryzae
Experiment: whole plant or invertebrate
Assay type: in vivo
Measurement Conditions: Pyricularia oryzae, read-out: % Control RB, application rate 50 ppm

Name the recorded pest or weed control at 50 ppm of CCCCCCCCNC(=O)/C=C\SC(=O)/C=C/c1ccco1 , assay system Piricularia oryzae.
80%

Name the value of pest or weed control at 50 ppm reported for CCCCCCCCNC(=O)/C=C\SC[C@H](N)C(=O)O when tested on Piricularia oryzae.
0%

Report value only: pest or weed control at 50 ppm, Piricularia oryzae, CCCCCCCCNC(=O)/C=C\SC(=O)CCC1CCCC1
75%

Give the observed pest or weed control at 50 ppm of CCCCCCCCNC(=O)/C=C\SC(=O)/C=C/c1cccs1 for Piricularia oryzae.
50%

Return reported pest or weed control at 50 ppm for target or system Piricularia oryzae, item CCCCCCCCNC(=O)/C=C\SC(=O)CC1C=CCC1 (centres unmarked) .
90%

* * *

Field: pest or weed control at 12 ppm. Provide a value for each of the compounds that follow.
Test system: Pseudoperonospora cubensis
Experiment: whole plant or invertebrate
Assay type: in vivo
Measurement Conditions: Pseudoperonospora cubensis, in Cucumis sativus, 168 h; read-out: % Control CDM
Express the reported value numerically, then name its unit.

Please report pest or weed control at 12 ppm with Pseudoperonospora cubensis for item CCCCCCCCNC(=O)/C=C\SC(=O)c1cccnc1 [Compound 55] .
70%

Given CCCCCCCCNC(=O)/C=C\SC[C@H](N)C(=O)O [Compound 47] , report its pest or weed control at 12 ppm on Pseudoperonospora cubensis.
70%

Give pest or weed control at 12 ppm; test system Pseudoperonospora cubensis; compound CCCCCCCCNC(=O)/C=C\SC(=O)c1ccc2ccccc2c1 [Compound 56]
50%

Print Pseudoperonospora cubensis pest or weed control at 12 ppm for CCCCCCCCNC(=O)/C=C\SC(=O)/C=C/c1ccco1 [Compound 68] .
70%

Specify pest or weed control at 12 ppm for CCCCCCCCNC(=O)/C=C\SC(=O)c1ccc(OC)cc1 [Compound 16] , system Pseudoperonospora cubensis.
50%

* * *

System: Phytophthora infestans
Experiment: whole plant or invertebrate
Assay type: in vivo
Measurement Conditions: Phytophthora infestans, in Solanum lycopersicum, 96 h, read-out: % Control TLB, application rate 200 ppm
Endpoint: pest or weed control at 200 ppm
Quick note: number first, unit second.

Report its pest or weed control at 200 ppm with Phytophthora infestans as the test system: CCCCCCCCNC(=O)/C=C\SC(=O)COCC [Compound 60]
95%

Recall the reported pest or weed control at 200 ppm of CCCCCCCCNC(=O)/C=C\SC(=O)c1ccc(CCCC)cc1 [Compound 115] when tested on Phytophthora infestans.
0%

Give measured pest or weed control at 200 ppm for CCCCCCCCNC(=O)/C=C\SC(=O)c1ccc(OCCCCCCC)cc1 [Compound 45] (Phytophthora infestans).
0%

Provide pest or weed control at 200 ppm, recorded with Phytophthora infestans, of CCCCCCCCNC(=O)/C=C\SC(=O)CCCCCCCCCCC#N [Compound 58]
0%

Enter pest or weed control at 200 ppm (test system Phytophthora infestans) for CCCCCCCCNC(=O)/C=C\SC(=O)CCOc1ccccc1 [Compound 79]
100%

* * *

Test system: Puccinia graminis (f. sp. tritici Race 15B-2)
Experiment: whole plant or invertebrate
Format: in vivo
Measurement Conditions: Puccinia graminis, 336 h, read-out: % Control WSR
Endpoint: pest or weed control at 200 ppm (%)
Your answer is read as %, so omit the unit and give the number.

Report pest or weed control at 200 ppm under test system Puccinia graminis (f. sp. tritici Race 15B-2) for CCCCCCCCNC(=O)/C=C\SC(=O)c1cccnc1Cl [Compound 6] .
90

For Puccinia graminis (f. sp. tritici Race 15B-2), give the measured pest or weed control at 200 ppm of the entry C/C=C/C=C/C(=O)S/C=C\C(=O)NCCCCCCCC [Compound 59]
50

Please respond with reported pest or weed control at 200 ppm (system Puccinia graminis (f. sp. tritici Race 15B-2)) for CCCCCCCCNC(=O)/C=C\SC(=O)c1ccc([N+](=O)[O-])cc1 [Compound 46] .
100

GET pest or weed control at 200 ppm where system = Puccinia graminis (f. sp. tritici Race 15B-2) and item = CCCCCCCCNC(=O)/C=C\SC(=O)c1ccc(C)cc1C [Compound 43]
50

Under Puccinia graminis (f. sp. tritici Race 15B-2): report pest or weed control at 200 ppm of CCCCCCCCNC(=O)/C=C\SC(=O)CC [Compound 10, N-octyl-cis-3-(propanoylthio)acrylamide] .
90

Fill in pest or weed control at 200 ppm for CCCCCCCCNC(=O)/C=C\SC(=O)c1ccc(F)cc1 [Compound 3] tested with Puccinia graminis (f. sp. tritici Race 15B-2).
75

Supply pest or weed control at 200 ppm measured with Puccinia graminis (f. sp. tritici Race 15B-2) for CCCCCCCCNC(=O)/C=C\SC(=O)c1cccnc1 [Compound 55] .
90

Retrieve pest or weed control at 200 ppm on Puccinia graminis (f. sp. tritici Race 15B-2); query CCCCCCCCNC(=O)/C=C\SCc1ccc(C(F)(F)F)cc1 [Compound 33]
75

Please indicate recorded pest or weed control at 200 ppm of CCCCCCCCNC(=O)/C=C\SC(=O)/C=C/C(=O)OCC [Compound 57] measured with Puccinia graminis (f. sp. tritici Race 15B-2).
90

Specify the recorded pest or weed control at 200 ppm for CCCCCCCCNC(=O)/C=C\SC(=O)CCCCl [Compound 29] , system: Puccinia graminis (f. sp. tritici Race 15B-2).
75

* * *

Test system: Piricularia oryzae
Experiment: whole plant or invertebrate
Type: in vivo
Measurement Conditions: Pyricularia oryzae, read-out: % Control RB, application rate 200 ppm
Quick rule for you: pest or weed control at 200 ppm under 50% gets yes (1), anything else gets no (0).

Does the reported pest or weed control at 200 ppm of the following molecule sit strictly below 50%? CCCCCCCCNC(=O)/C=C\SC(=O)/C=C/C=C/c1ccccc1
yes (1)

Dear reviewer, please state whether C=CCC(=O)S/C=C\C(=O)NCCCCCCCC has pest or weed control at 200 ppm strictly beneath 50%.
yes (1)

Record C=CC(=O)S/C=C\C(=O)NCCCCCCCC [Compound 71, N-octyl-cis-3-(propenoylthio)acrylamide] : is its pest or weed control at 200 ppm strictly below 50%?
yes (1)

Quick check: pest or weed control at 200 ppm of CCCCCCCCNC(=O)/C=C\SC(=O)/C=C/C(=O)OCC under 50%?
no (0)

A record lists CC/C=C/C(=O)S/C=C\C(=O)NCCCCCCCC . Is its pest or weed control at 200 ppm below 50%?
yes (1)

Decide: pest or weed control at 200 ppm of CCCCCCCCNC(=O)/C=C\SC(=O)CCCCCCCC(=O)OC strictly below 50%?
yes (1)

Please determine if C/C=C/C=C/C(=O)S/C=C\C(=O)NCCCCCCCC is below 50% in terms of pest or weed control at 200 ppm.
yes (1)

Does CCCCCCCCNC(=O)/C=C\SC(=O)CCCCCCC(=O)OC have pest or weed control at 200 ppm strictly under 50%?
no (0)

Confirm or reject: pest or weed control at 200 ppm of CCCCCCCCNC(=O)/C=C\SC(=O)C1CCc2ccccc2C1 (stereo not drawn) lies strictly below 50%
yes (1)

Determine whether this molecule shows pest or weed control at 200 ppm lower than 50% (ties excluded): CCCCCCCCNC(=O)/C=C\SC(=O)c1cnc2ccccc2c1
yes (1)

Dear colleague, could you confirm whether pest or weed control at 200 ppm of CCCCCCCCNC(=O)/C=C\SC(=O)CCc1ccccc1 falls below 50%? Thanks.
no (0)

Please let me know if CCCCCCCCNC(=O)/C=C\SC(=O)c1cnccc1Cl shows pest or weed control at 200 ppm below 50%.
yes (1)

Please indicate whether the reported pest or weed control at 200 ppm of CCCCCCCCNC(=O)/C=C\SC(=O)CCCOc1ccccc1 is strictly below 50%.
yes (1)

Here's an entry: CCCCCCCCNC(=O)/C=C\SC(=O)CCCCl . Is its pest or weed control at 200 ppm below 50%?
no (0)

A record lists CC(C)(C)CC(C)(C)NC(=O)/C=C\SC(=O)c1ccccc1 . Is its pest or weed control at 200 ppm below 50%?
yes (1)

Consider the molecule CCCCCCCCNC(=O)/C=C\SC(=O)c1ccc(Cl)cc1Cl . Is its pest or weed control at 200 ppm strictly less than 50%?
yes (1)

Could you please tell me whether pest or weed control at 200 ppm recorded for CCCCCCCCNC(=O)/C=C\SC(=O)c1ccc([N+](=O)[O-])cc1C is less than 50%?
no (0)

Please check: pest or weed control at 200 ppm for CCCCCCCCNC(=O)/C=C\SC(=O)c1ccc(OCCCCCCC)cc1 , strictly under 50% or not?
yes (1)

Given the entry CCCCCCCCNC(=O)/C=C\SC(=O)c1ccsc1 , would its reported pest or weed control at 200 ppm be below 50%?
yes (1)

Strictly below 50% in pest or weed control at 200 ppm? CCCCCCCCNC(=O)/C=C\SC(=O)c1ccc([N+](=O)[O-])cc1
no (0)

In the record for C#CCNC(=O)/C=C\SC(=O)c1ccccc1 , is pest or weed control at 200 ppm less than 50%?
yes (1)

In plain terms, does CCCCCC#CC(=O)S/C=C\C(=O)NCCCCCCCC come in under 50% for pest or weed control at 200 ppm?
yes (1)

Determine if CCCCCCCCNC(=O)/C=C\SC(=O)CCCC(=O)OC shows pest or weed control at 200 ppm strictly lower than 50%.
no (0)

# check: pest or weed control at 200 ppm < 50% for CCCCCCCCNC(=O)/C=C\SC(=O)Cc1ccccc1
no (0)

Does the reported pest or weed control at 200 ppm of CCCCCCCCNC(=O)/C=C\SC(=O)c1sccc1C stay below 50%?
yes (1)

Dear colleague, could you confirm whether pest or weed control at 200 ppm of CCCCCCCCNC(=O)/C=C\SC(=O)CC1CCCCC1 falls below 50%? Thanks.
no (0)

Just wondering, is pest or weed control at 200 ppm of CCCCCCCCNC(=O)/C=C\SC(=O)C1C=CCC=C1C (stereo not drawn) below 50%?
no (0)

Regarding CCCCCCCCNC(=O)/C=C\SC(=O)C(C)(C)CCl , kindly confirm whether its pest or weed control at 200 ppm is beneath 50%.
yes (1)

Dear colleague, could you confirm whether pest or weed control at 200 ppm of CCCCCCCCNC(=O)/C=C\SC(=O)CCCCC(=O)OC falls below 50%? Thanks.
no (0)

Please check: pest or weed control at 200 ppm for CCCCCCCCNC(=O)/C=C\SC(=O)/C(=C/c1ccccc1)c1ccccc1 , strictly under 50% or not?
no (0)

Confirm or reject: pest or weed control at 200 ppm of C=Cc1ccc(C(=O)S/C=C\C(=O)NCCCCCCCC)cc1 lies strictly below 50%
yes (1)
